Ref: PubChem BioAssay AID1159580

assay: chemical genetic growth profiling, strain panel (AID 1159580);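 further: tested at 20 µM; growth read once vehicle control cultures reached saturation at 30 °C; 1 = growth at the plate median or of vehicle wells; lower values mean less growth of the strain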; conditions: S. cerevisiae deletion strains, growth OD, locus YJL134W, strain LCB3, hits give low values
In all, about 5,500 compounds went through this assay and about 2,000 (36%) were called active. Inconclusive results (about 18%) are left out. The list shows a part of the results.

compound | normalized growth
CC12CCC3C(CC3(C)C)C(C)(CCC1=O)O2 (centres undefined) | 1.02
CCC(C)C(=O)OC1[C@@H]2CC3=C4CC(=O)O[C@@H](c5ccoc5)[C@]4(C)CCC3[C@@](C)(C2=O)[C@@H](CC(=O)OC)C1(C)C (some centres undefined) | 1
CC(=O)O[C@@H]1CC[C@@]2(C)C(C[C@@H](OC(C)=O)[C@@]3(C)C4=CC(=O)O[C@@H](c5ccoc5)[C@]4(C)CCC23)C1(C)C (some centres undefined) | 1.02
CS(=O)(=O)Nc1ccc([N+](=O)[O-])cc1Oc1ccccc1 | 0.991
C=C(C)C1CCC(C)(O)C2CC3OC3(C)C2C1 (centres undefined) | 1.01
CC(Cc1cccc(C(F)(F)F)c1)NCCOC(=O)c1ccccc1 (centres undefined) | 1
CC(=O)O[C@H]1CC[C@@]2(C)C(C[C@@H](OC(C)=O)[C@@]3(C)C4=CC(=O)O[C@@H](c5ccoc5)[C@]4(C)CCC23)C1(C)C (some centres undefined) | 1.01
CC(=O)OCC(=O)[C@@]1(O)[C@H](C)CC2C3CCC4=CC(=O)C=C[C@]4(C)[C@@]3(F)[C@@H](O)C[C@@]21C (some centres undefined) | 1.01
CC(=O)O[C@@H]1C=C[C@@]2(C)C(C[C@@H](OC(C)=O)[C@@]3(C)C4=CC(=O)O[C@@H](c5ccoc5)[C@]4(C)CCC23)C1(C)C (some centres undefined) | 1.02
NCC(N)C(=O)c1ccccc1 (centres undefined) | 1.01
OC[C@H]1O[C@@](CO)(O[C@@H]2O[C@H](CO)[C@@H](O)[C@H](O)[C@H]2O)[C@@H](O[C@@H]2O[C@H](CO)[C@@H](O)[C@H](O)[C@H]2O)[C@@H]1O | 1.01
CC(=O)O[C@@H]1CC2C(C)(C)[C@H](O)C=C[C@]2(C)C2CC[C@]3(C)C(=CC(=O)O[C@H]3c3ccoc3)[C@@]21C (some centres undefined) | 1.01
N=C(N)N | 0.997
NCC(=O)c1ccccc1 | 1.01
O=C(OCc1ccccc1)c1ccccc1 | 0.988
CS(=O)(=O)c1ccc([C@@H](O)[C@@H](CO)NC(=O)C(Cl)Cl)cc1 | 0.974
NC(=O)NC(=O)Cc1ccccc1 | 1.01
OC[C@H]1O[C@@H](O[C@H]2[C@H](O)[C@@H](O)[C@@H](O)O[C@@H]2CO)[C@H](O)[C@@H](O)[C@@H]1O | 1
O=C(O)C1=CCCNC1 | 0.991
